Test system: HepG2
Experiment: cytotoxicity call (relative viability < 0.9)
Conditions: 10 µM
About 3,300 (8.5%) of roughly 39,000 compounds were called active. This excerpt belongs to a sample that is enriched for actives.
Please state which outcome applies, choosing from active, inactive

Call for entry C[C@@H]1CN([C@H](C)CO)C(=O)Cc2cc(NS(=O)(=O)c3ccccc3)ccc2O[C@@H]1CN(C)Cc1ccc(Cl)c(Cl)c1 :
active

Call for entry Cc1ccccc1S(=O)(=O)N1C[C@@H](O)COC[C@@H]2O[C@H](CC(=O)NCCc3ccncc3)CC[C@H]21 :
inactive

Call for entry COc1ccc(NC(=O)Nc2ccc3c(c2)C(=O)N([C@@H](C)CO)C[C@H](C)[C@H](CN(C)CC2CCCCC2)OCCCC[C@H](C)O3)cc1 :
active

Now turn to the next compound.
Call for entry C[C@H]1CN([C@@H](C)CO)C(=O)Cc2cc(NS(=O)(=O)c3cccs3)ccc2O[C@H]1CN(C)Cc1ccc(Cl)c(Cl)c1 :
active

###

Tested on: HepG2
Experiment: cytotoxicity call (relative viability < 0.9)
Conditions: 10 µM
Among all 39,000 compounds or so, about 3,300 (8.5%) were called active. The full list was thinned out, with actives kept by preference.
Please state which outcome applies, choosing from active, inactive

Solved cases below.
Call for entry COc1ccc(NC(=O)N(C)C[C@@H]2Oc3ncc(C#C[C@H](C)O)cc3C(=O)N([C@@H](C)CO)C[C@H]2C)cc1 :
inactive

Call for entry C[C@@H]1CCCCO[C@H](CN(C)C(=O)Nc2ccc3c(c2)OCO3)[C@H](C)CN([C@@H](C)CO)C(=O)c2cc(NC(=O)CCC(F)(F)F)ccc2O1 :
inactive

Call for entry COc1cc2ncnc(Nc3ccc(F)c(Cl)c3)c2cc1OCCCN1CCOCC1 :
active

Call for entry O=C(C[C@H]1CC[C@H]2[C@@H](COC[C@@H](O)CN2S(=O)(=O)c2ccc(F)cc2)O1)N[C@@H]1CCN(Cc2ccccc2)C1 :
inactive

Call for entry CC(=O)O[C@H]1CCS(=O)(=O)C1 :
inactive

New cases:
Call for entry C=CCN1C(=O)[C@@]2(O[C@H](CCOC(=O)NCCCCCC(=O)NO)[C@@H]([Si](C)(C)c3ccc(OC)cc3)[C@@H]2C)c2cc(I)ccc21 :
inactive

Call for entry CC12CC3CC(C)(C1)CC(N)(C3)C2.Cl :
active

###

Test system: HepG2
Test: cytotoxicity call (relative viability < 0.9)
Details: 10 µM
In all, about 39,000 compounds went through this assay and about 3,300 (8.5%) were called active. For the sample, actives were picked, then their nearest neighbours and some compounds at random.
Please state which outcome applies, choosing from yes (1) = active, no (0) = inactive

Solved cases below.
Call for entry C[C@@H]1CCCCO[C@@H](CN(C)Cc2ccc(Cl)c(Cl)c2)[C@@H](C)CN([C@H](C)CO)C(=O)c2cc(NC(=O)Nc3ccc4c(c3)OCO4)ccc2O1 :
no (0)

Call for entry Cc1noc(C)c1S(=O)(=O)Nc1ccc2c(c1)C(=O)N([C@H](C)CO)C[C@@H](C)[C@@H](CN(C)S(=O)(=O)c1ccc(Cl)cc1)O2 :
no (0)

Call for entry C[C@@H]1CCCCO[C@@H](CN(C)Cc2ccc(Cl)c(Cl)c2)[C@H](C)CN([C@@H](C)CO)C(=O)c2cc(NC(=O)Nc3ccc4c(c3)OCO4)ccc2O1 :
no (0)

Call for entry O=C(C[C@H]1CC[C@H]2[C@@H](COC[C@@H](O)CN2Cc2ccccc2F)O1)N[C@H]1CCN(Cc2ccccc2)C1 :
no (0)

Call for entry C[C@@H]1CCCCO[C@H](CN(C)Cc2ccc(Cl)c(Cl)c2)[C@@H](C)CN([C@H](C)CO)C(=O)c2cc(NC(=O)Nc3ccc4c(c3)OCO4)ccc2O1 :
yes (1)

Call for entry C[C@H](CO)N1C[C@H](C)[C@@H](CN(C)Cc2ccc(Cl)c(Cl)c2)OCCCC[C@H](C)Oc2ccc(NC(=O)Nc3ccc4c(c3)OCO4)cc2C1=O :
no (0)

Call for entry COc1ccc(NC(=O)Nc2ccc3c(c2)C(=O)N([C@H](C)CO)C[C@H](C)[C@H](CN(C)Cc2ccc(C(F)(F)F)cc2)OCCCC[C@@H](C)O3)cc1 :
no (0)

Call for entry COCC#Cc1cnc2c(c1)C(=O)N([C@H](C)CO)C[C@H](C)[C@@H](CN(C)C(=O)Nc1ccc(OC)cc1)O2 :
no (0)

New cases:
Call for entry C[C@@H]1CN([C@H](C)CO)C(=O)c2cc(NC(=O)Nc3ccc4c(c3)OCO4)ccc2O[C@@H](C)CCCCO[C@@H]1CN(C)Cc1ccc(Cl)c(Cl)c1 :
yes (1)

Call for entry CC(=O)c1ccn[nH]1 :
no (0)

Call for entry COc1ccc(CN(C)C[C@@H]2OCCCC[C@@H](C)Oc3ccc(NC(=O)Nc4ccc(C(F)(F)F)cc4)cc3C(=O)N([C@H](C)CO)C[C@@H]2C)cc1 :
yes (1)

Call for entry C[C@H]1CCCCO[C@H](CN(C)C(=O)CCC(F)(F)F)[C@@H](C)CN([C@@H](C)CO)C(=O)c2cc(NS(=O)(=O)c3cccs3)ccc2O1 :
no (0)

Call for entry C[C@H]1CCCCO[C@H](CN(C)Cc2ccc(Cl)c(Cl)c2)[C@@H](C)CN([C@@H](C)CO)C(=O)c2cc(NC(=O)Nc3ccc4c(c3)OCO4)ccc2O1 :
yes (1)
